Taken from patent US20250313612A1.

Target: T1, RSV F ectodomain stabilized in the postfusion conformation (F ΔFP), subtype A (Respiratory syncytial virus subtype A, UniProt P03420 26-109; P03420 147-524)
T1 construct: extracellular domain; trimer; furin-cleaved; also called Postfusion subtype A
Experiment: BLI, IgG on AHQ sensor, 100 nM antigen
pKd: −log10 of the molar value.

{"columns": ["binder", "pKd"],
 "data": [
  ["ADI-14513 (antibody, V domains shown, full-length IgG (yeast-expressed); also called Antibody Number 74; Ab# 74) VH: QVQLVQSGSEVKRPGSSVKVSCKASGVALTTVAVNWVRQVPGQGPEWIGGILIGFGKVRQAQKFENRVTFTADASRNTAYMELSGLRSEDTAVYYCAIIDPQDCTRASCFWVNWLAPWGHGTLVTVSS VL: DIRVTQSPGTLTLSPGERASLSCRASESILNGNLAWYQQKPGQAPRLLIYAASSRATDIPDRFSGSGSGTDFTLTISRLEPQDFAVYYCQQYGSAPITFGQGTRLEIK", 8.92],
  ["ADI-14453 (antibody, V domains shown, full-length IgG (yeast-expressed); also called Antibody Number 16; Ab# 16) VH: QITLKESGPTVVKPTQTLTLTCTFSGFSLNTRGMGVAWIRQPPGGALEWLALVDWDDDKRYSPSLRSRLTITKDTSKNQVLFTMTTMDPADTATYYCAHIGLYDRGGYYLFYFDFWGQGTLVTVSS VL: DIVLTQSPSSLSASVGDRVTITCRASQSIASYVNWFQQKPGKAPVLLMFASSILQSGVPPRFRGSGSGTDFTLTITSLQPEDFATYYCQHTYTTPYIFGRGTKVEIK", 9.58]
]}
